# Assayed target: human IGF-1R, native, on MCF-7 cells or on hIGF-1R transfected cells (human, UniProt P08069 31-1367)
# Protocol description: cell-based or functional assay
Outcome measure: inhibition of hIGF-1R phosphorylation in response to IGF-1 (MCF-7)

Determine its reported inhibition of hIGF-1R phosphorylation in response to IGF-1 (MCF-7): m214F8 (antibody, V domains shown) VH: QVQLQQSGSELVKPGASVKLSCKASGYTFTSYYIHWVKQRPGQGLEWIGWIWPGDGSTKYNERFKGKTTLTADKSSSTAYMFLSSLTSEDSAVYFCASPMITPNYAMDYWGQGASVTVSS VL: DIQMTQTTSSLSASLGDRVTFSCRASQDISKYLNWYQQQPDGTIKLLIYYTSRLHSGVPSRFSGRGSGTDYSLTITNLEQEDIATYFCQQGSALPYTFGGGTKLEIK > 80%
